Target: L-lactate dehydrogenase (Plasmodium falciparum (isolate CDC / Honduras))
Assay: PfLDH activity inhibition – cell lysate, 3D7 strain, counter-screen for P. falciparum growth inhibition project (AID 2304);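 also: 0% = vehicle and 100% = reference inhibitor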
Settings: P. falciparum 3D7 crude extract, LDH APAD/NBT absorbance; at 2 µM; stronger effect = higher value
The source made the active and inactive calls. No rule for the calls is given here.
observable: inhibition

Observe how each entry below is paired with its result.
>>> print(df.to_string())
                                   compound          result
0  Cc1[nH]c(C)c(-c2cccc(Oc3ccc(Cl)cc3)c2)c(=O)c1Br   4% (inactive)
1  O=C(NNC(=O)c1ccc(CN2CCC(c3nc4ccccc4[nH]3)CC2)cc1)Nc1ccc(Oc2ccccc2)cc1   0% (inactive)
2  Cc1[nH]c(C)c(-c2ccc(OCc3ccc(F)cc3)nc2)c(=O)c1Br  -4% (inactive)
3  Cc1c(F)cc(C(=O)NC2CC2)cc1-c1ccc2c(cnn2S(=O)(=O)c2cccs2)c1  -4% (inactive)
4  CC(C)C(=O)ONC1=NC(C)(C)N(OCCCOc2cc(Cl)c(Cl)cc2Cl)C(NOC(=O)C(C)C)=N1  -9% (inactive)

Query compound follows.
Param request: inhibition | system L-lactate dehydrogenase (Plasmodium falciparum (isolate CDC / Honduras)) | item COC(=O)CNC(c1ccccc1)c1cc(Br)ccc1NC(=O)c1ccccc1Br (stereo unspecified) -1% (inactive)

Data origin, for the record: PubChem BioAssay
